Tested on: Lucilia cuprina larvae
Experiment: Lucilia cuprina test (LUCICU)
Type: in vivo
Conditions: application rate 100 ppm; treated horse meat; after 2 days
Provide the recorded efficacy (kill of larvae) for the entries that follow.
Please give a number only; it is taken to be in %.

Enquiry: What value of efficacy (kill of larvae) has been recorded for this entry: Cc1ccc(-c2ccc(Cl)cc2)c(Cl)c1C1=C(O)C2(CCOCC2)NC1=O
Return: 100

Enquiry: What value of efficacy (kill of larvae) has been recorded for this entry: COC1CCC2(CC1)NC(=O)C(c1c(Cl)ccc(-c3ccc(F)cc3)c1C)=C2O (stereo not shown)
Return: 100

Enquiry: What value of efficacy (kill of larvae) has been recorded for this entry: O=C1NC2(CCOCC2)C(O)=C1c1c(Cl)ccc(-c2ccc(Cl)cc2)c1Cl
Return: 100

Enquiry: What value of efficacy (kill of larvae) has been recorded for this entry: Cc1ccc(-c2ccc(F)cc2)c(Cl)c1C1=C(O)C2(CCOCC2)NC1=O
Return: 100

Enquiry: What value of efficacy (kill of larvae) has been recorded for this entry: Cc1c(-c2ccc(F)cc2)ccc(Cl)c1C1=C(O)C2(CCOCC2)NC1=O
Return: 90

Enquiry: What value of efficacy (kill of larvae) has been recorded for this entry: CCc1c(-c2ccc(F)cc2)ccc(C)c1C1=C(O)C2(CCOCC2)NC1=O
Return: 90

Enquiry: What value of efficacy (kill of larvae) has been recorded for this entry: Cc1c(-c2ccc(Cl)cc2)ccc(Cl)c1C1=C(O)C2(CCOCC2)NC1=O
Return: 100

###

Tested on: greenhouse red spider mite (Tetranychus urticae)
Test: Tetranychus test; OP-resistant (TETRUR spray treatment)
Type: in vivo
Conditions: application rate 100 g/ha; bean leaf discs sprayed; after 6 days
measure: efficacy (spider mites killed)
Remember to quote the unit after the number.

Enquiry: What value of efficacy (spider mites killed) has been recorded for this entry: Cc1c(-c2ccc(F)cc2)ccc(Cl)c1C1=C(O)C2(CCOCC2)NC1=O
Return: 100%

Enquiry: What value of efficacy (spider mites killed) has been recorded for this entry: CCOC(=O)OC1=C(c2c(CC)ccc(-c3ccc(F)cc3)c2C)C(=O)NC12CCC(OC)CC2 (single isomer, unassigned)
Return: 90%

Enquiry: What value of efficacy (spider mites killed) has been recorded for this entry: CCc1ccc(-c2ccc(Cl)cc2)c(C)c1C1=C(O)C2(CCC(OC)CC2)NC1=O (stereo not drawn)
Return: 100%

Enquiry: What value of efficacy (spider mites killed) has been recorded for this entry: CCc1ccc(-c2ccc(Cl)cc2)c(C)c1C1=C(O)C2(CCOCC2)NC1=O
Return: 90%

Enquiry: What value of efficacy (spider mites killed) has been recorded for this entry: CCc1ccc(-c2ccc(F)cc2)c(C)c1C1=C(OC(=O)C(C)C)C2(CCC(OC)CC2)NC1=O (stereo not drawn)
Return: 100%

Enquiry: What value of efficacy (spider mites killed) has been recorded for this entry: CCc1ccc(-c2ccc(Cl)cc2)c(CC)c1C1=C(O)C2(CCOCC2)NC1=O
Return: 80%

Enquiry: What value of efficacy (spider mites killed) has been recorded for this entry: CCc1ccc(-c2ccc(Cl)cc2)c(CC)c1C1=C(OC(=O)C(C)C)C2(CCOCC2)NC1=O
Return: 80%

Enquiry: What value of efficacy (spider mites killed) has been recorded for this entry: CCc1ccc(-c2ccc(Cl)cc2)c(CC)c1C1=C(O)C2(CCC(OC)CC2)NC1=O (stereo not drawn)
Return: 90%

Enquiry: What value of efficacy (spider mites killed) has been recorded for this entry: CCc1c(-c2ccc(Cl)cc2)ccc(C)c1C1=C(O)C2(CCOCC2)NC1=O
Return: 100%

Enquiry: What value of efficacy (spider mites killed) has been recorded for this entry: CCc1ccc(-c2ccc(Cl)cc2)c(C)c1C1=C(OC(=O)C(C)C)C2(CCC(OC)CC2)NC1=O (stereo not drawn)
Return: 90%

Enquiry: What value of efficacy (spider mites killed) has been recorded for this entry: CCON1CCC2(CC1)NC(=O)C(c1c(CC)ccc(-c3ccc(Cl)cc3)c1C)=C2O
Return: 90%

Enquiry: What value of efficacy (spider mites killed) has been recorded for this entry: Cc1ccc(-c2ccc(F)cc2)c(Cl)c1C1=C(O)C2(CCOCC2)NC1=O
Return: 100%

Enquiry: What value of efficacy (spider mites killed) has been recorded for this entry: CCOC(=O)OC1=C(c2c(CC)ccc(-c3ccc(Cl)cc3)c2C)C(=O)NC12CCC(OC)CC2 (stereo not drawn)
Return: 100%

Enquiry: What value of efficacy (spider mites killed) has been recorded for this entry: CCc1c(-c2ccc(F)cc2)ccc(C)c1C1=C(O)C2(CCOCC2)NC1=O
Return: 100%

Enquiry: What value of efficacy (spider mites killed) has been recorded for this entry: CCON1CCC2(CC1)NC(=O)C(c1c(CC)ccc(-c3ccc(Cl)cc3)c1CC)=C2O
Return: 100%
